target.of.assay: T1, renin (human (produced in the Human Secretome …, UniProt P00797 24-406, limits assumed))
T1 construct: also called bREN
T1 sequence (looked up): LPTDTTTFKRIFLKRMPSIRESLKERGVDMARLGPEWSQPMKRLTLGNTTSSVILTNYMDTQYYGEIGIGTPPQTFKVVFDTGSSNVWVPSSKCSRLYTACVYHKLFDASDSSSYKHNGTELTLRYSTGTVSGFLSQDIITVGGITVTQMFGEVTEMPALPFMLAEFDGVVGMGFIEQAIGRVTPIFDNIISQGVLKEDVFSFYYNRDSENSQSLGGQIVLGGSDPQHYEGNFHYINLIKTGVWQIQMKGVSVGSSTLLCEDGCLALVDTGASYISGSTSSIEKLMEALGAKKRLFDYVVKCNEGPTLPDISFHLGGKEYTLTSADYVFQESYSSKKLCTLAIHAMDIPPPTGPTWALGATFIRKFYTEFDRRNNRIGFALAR
experimental.details: SPR Biacore T200, target on CM5 chip, ADAPT injected, 1:1 fit
measurement.label: Kd (nM)

I: LMWAKAEAAIELVDYGVSDFYQYLISKAKTVEGVEALKLHILAALP (designed binder) [ADAPT variant REN_40]
II: LYHAKWMASLELAKYGVSDFYWNLISKAKTVEGVEALKLHILAALP (designed binder) [ADAPT variant REN_01]
Hey, which is lower on measured Kd, I or II ? Answer format: the label of the selected item. II
(II: 76 nM, I: 410 nM)
